target: T1, EBV gp350 stably expressed on CHO cells (Epstein-Barr virus, UniProt P03200); assay: Epitope mapping by competitive cell binding assay with biotinylated mAbs; conditions: unlabeled mAb 250 μg/ml; biotinylated m72A1 1 μg/ml
T1 construct: stably co-transfected with full-length pCAGGS-gp350/220 and pCI-puro vector; expressed in transfected cells; host or cells: CHO cells
T1 sequence (P03200 whole entry): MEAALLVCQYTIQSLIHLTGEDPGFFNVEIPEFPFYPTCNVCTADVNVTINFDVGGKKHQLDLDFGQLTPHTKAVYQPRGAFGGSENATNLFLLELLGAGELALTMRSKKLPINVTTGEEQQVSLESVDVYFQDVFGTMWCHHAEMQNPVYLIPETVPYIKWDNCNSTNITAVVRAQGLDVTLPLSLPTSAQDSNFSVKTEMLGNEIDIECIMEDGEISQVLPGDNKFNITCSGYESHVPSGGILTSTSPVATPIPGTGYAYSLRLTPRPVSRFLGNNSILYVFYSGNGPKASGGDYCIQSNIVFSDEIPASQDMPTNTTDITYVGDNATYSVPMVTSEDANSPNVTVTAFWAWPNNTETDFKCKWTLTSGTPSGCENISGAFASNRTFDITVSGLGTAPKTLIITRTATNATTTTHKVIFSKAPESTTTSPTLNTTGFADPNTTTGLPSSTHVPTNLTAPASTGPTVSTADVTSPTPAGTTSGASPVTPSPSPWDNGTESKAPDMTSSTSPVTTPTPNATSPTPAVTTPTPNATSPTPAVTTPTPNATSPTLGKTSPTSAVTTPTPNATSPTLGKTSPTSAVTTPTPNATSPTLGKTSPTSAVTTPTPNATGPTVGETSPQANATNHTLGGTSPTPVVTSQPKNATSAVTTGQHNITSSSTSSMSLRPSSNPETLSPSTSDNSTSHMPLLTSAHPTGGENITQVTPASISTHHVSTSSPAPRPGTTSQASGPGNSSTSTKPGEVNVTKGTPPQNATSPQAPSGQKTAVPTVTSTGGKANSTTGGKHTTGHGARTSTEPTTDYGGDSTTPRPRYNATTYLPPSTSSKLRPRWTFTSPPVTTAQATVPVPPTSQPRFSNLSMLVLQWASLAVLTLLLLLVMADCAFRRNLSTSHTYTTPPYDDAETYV
value-type: % inhibition of biotinylated nAbs (biotinylated m72A1) (%)

molecule: h72A1: humanized 72A1 IgG1; heavy and light chain SEQ ID NOs: 180 and 181 (antibody, V domains shown) VH: EVQLVESGGGLVQPGGSLRLSCAASGSSFTDYTMNWMRQSPGKGLEWIGLINPYNGGTRYADSVKGRATLSLDKSKNTAYLQMNSLRAEDTAIYYCAGGLRRVNWFAYWGQGTLVTVSS VL: DAQLTQSPILLSASVGDRVTITCRSSTGAVTTSNYANWVQERTNGSFRGLIGGTNNRVPGVPSRFSGSLSGDDATLTISSLQPEDEADYFCVLWHSNHWVFGAGTKVEIKR
endpoint-value: 95
